B1: Formin-binding protein 4, residues 593 to 636; numbered along this chain, Q8N3X1 (parent)
chain: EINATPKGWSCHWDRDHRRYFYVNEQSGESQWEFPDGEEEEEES

variants of: B1; test: abundance fitness (aPCA) (normalised: wild type 0, dead -1); higher = more abundant; growth selection in yeast, the domain comes from the species named; conditions: Homo sapiens
Returns the class for an entry based on its abundance fitness. Class ranges: range A = under -0.4, range B = from -0.4 up to -0.1, range C = -0.1 and over

// known answers, use as guide
{"columns": ["MUTATION_LABEL", "LABEL_VALUE"],
 "data": [
  ["S44V", "range C"],
  ["E38C", "range C"],
  ["E43W", "range B"],
  ["P35M", "range A"],
  ["G37T", "range C"],
  ["W13H", "range A"],
  ["D36K", "range C"],
  ["S30G", "range C"],
  ["E41Q", "range C"],
  ["H17P", "range A"]
]}

Sort `T5Q` into one of the categories.
range B

Sort `G37P` into one of the categories.
range C

Sort `G8Q` into one of the categories.
range A

Sort `R15M` into one of the categories.
range B

Sort `S30W` into one of the categories.
range C

Sort `G37H` into one of the categories.
range C

Sort `F34D` into one of the categories.
range B

Sort `R15Q` into one of the categories.
range C

Sort `E33F` into one of the categories.
range A

Sort `N3T` into one of the categories.
range B

Sort `N24G` into one of the categories.
range A

Sort `N3C` into one of the categories.
range B

Sort `F34R` into one of the categories.
range C

Sort `G28K` into one of the categories.
range B

Sort `R18M` into one of the categories.
range B

Sort `Q31F` into one of the categories.
range A

Sort `K7L` into one of the categories.
range B

Sort `I2V` into one of the categories.
range B

FYI, the data here is from the Human Domainome abundance scans (Beltran et al. 2025).
